Test system: Klebsiella pneumoniae PCI 602
MIC less than 3 µg/mL is y; MIC greater than or equal to 3 µg/mL is n.

Structure Smiles	Answer Label
NC[C@@H]1CC[C@@H](N)[C@@H](O[C@H]2[C@H](O[C@@H]3O[C@H](CO)[C@@H](O)[C@H]3O)[C@@H](O)[C@H](N)C[C@@H]2N)O1	n
NCC[C@H](O)C(=O)N[C@@H]1C[C@H](N)[C@@H](O[C@H]2O[C@H](CN)CC[C@H]2N)[C@H](O)[C@H]1O	n
NCC[C@H](O)C(=O)N[C@@H]1C[C@H](N)[C@@H](O[C@H]2O[C@H](CN)CC[C@H]2N)[C@H](O[C@@H]2O[C@H](CO)[C@@H](O)[C@H]2O)[C@H]1O	y
NC[C@H]1O[C@H](O[C@H]2[C@H](O)[C@@H](O)[C@H](N)C[C@@H]2N)[C@H](N)[C@@H](O)[C@@H]1O	n
NCC[C@H](O)C(=O)N[C@@H]1C[C@H](N)[C@@H](O[C@H]2O[C@H](CN)[C@@H](O)[C@H](O)[C@H]2N)[C@H](O[C@@H]2O[C@H](CO)[C@@H](O)[C@H]2O)[C@H]1O	y

Strictly below 3 µg/mL: is that where MIC of `NC[C@@H]1CC[C@@H](N)[C@@H](O[C@H]2[C@H](O)[C@@H](O)[C@H](N)C[C@@H]2N)O1` sits?
n

Next molecule: `NC[C@H]1O[C@H](O[C@H]2[C@H](O[C@@H]3O[C@H](CO)[C@@H](O)[C@H]3O)[C@@H](O)[C@H](N)C[C@@H]2N)[C@H](N)[C@@H](O)[C@@H]1O`
y

----------
Give measured MIC for each item. Keep answers brief.
Test system: Pseudomonas aeruginosa A 3
Assay: Minimal inhibitory concentration, agar dilution streak method
Assay type: cell-based
Settings: A3, nutrient agar, 37° C, 18 hours, read-out: Minimal inhibitory concentration
One number for each entry, in µg/mL.

Solved cases (6 shown):
Compound	Unit Of Measurement	MIC
NCC[C@H](O)C(=O)N[C@@H]1C[C@H](N)[C@@H](O[C@H]2O[C@H](CN)[C@@H](O)[C@H](O)[C@H]2N)[C@H](O[C@@H]2O[C@H](CO)[C@@H](O)[C@H]2O)[C@H]1O [Butirosin B]	µg/mL	3.12
NCC[C@H](O)C(=O)N[C@@H]1C[C@H](N)[C@@H](O[C@H]2O[C@H](CN)CC[C@H]2N)[C@H](O)[C@H]1O [AHB-dideoxyneamine]	µg/mL	6.25
NC[C@H]1O[C@H](O[C@H]2[C@H](O)[C@@H](O[C@H]3O[C@H](CO)[C@@H](O)[C@H](N)[C@H]3O)[C@H](N)C[C@@H]2N)[C@H](N)[C@@H](O)[C@@H]1O [Kanamycin B, kanamycin B]	µg/mL	50
NCC[C@H](O)C(=O)N[C@@H]1C[C@H](N)[C@@H](O[C@H]2O[C@H](CN)CC[C@H]2N)[C@H](O[C@@H]2O[C@H](CO)[C@@H](O)[C@H]2O)[C@H]1O [AHB-dideoxyribostamycin]	µg/mL	6.25
NCC[C@H](O)C(=O)N[C@@H]1C[C@H](N)[C@@H](O[C@H]2O[C@H](CN)[C@@H](O)[C@H](O)[C@H]2N)[C@H](O)[C@H]1O[C@H]1O[C@H](CO)[C@@H](O)[C@H](N)[C@H]1O [AHB-kanamycin B]	µg/mL	6.25
NC[C@@H]1CC[C@@H](N)[C@@H](O[C@H]2[C@H](O)[C@@H](O)[C@H](N)C[C@@H]2N)O1 [3',4'-dideoxyneamine]	µg/mL	25

Now examine the next entry.
Given the entry NC[C@@H]1CC[C@@H](N)[C@@H](O[C@H]2[C@H](O[C@@H]3O[C@H](CO)[C@@H](O)[C@H]3O)[C@@H](O)[C@H](N)C[C@@H]2N)O1 [3',4'-dideoxyribostamycin] , report its measured MIC.
6.25
